Recorded Kd, one value per entry.
Target: T1, human GPVI-Fc fusion protein (human, UniProt Q9HCN6 21-267, limits assumed)
T1 construct: also called human GPVI protein antigen
T1 sequence (looked up): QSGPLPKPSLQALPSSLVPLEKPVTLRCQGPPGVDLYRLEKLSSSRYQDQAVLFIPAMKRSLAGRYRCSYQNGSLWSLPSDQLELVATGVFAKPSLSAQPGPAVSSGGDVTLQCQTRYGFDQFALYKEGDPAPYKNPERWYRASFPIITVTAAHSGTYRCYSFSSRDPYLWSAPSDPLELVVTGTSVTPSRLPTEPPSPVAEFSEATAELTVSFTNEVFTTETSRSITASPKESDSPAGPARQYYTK
Assay: BLI (Octet), GPVI-Fc on biosensor, 1:1 fit
Just the number plus its unit, please.

Solved cases (4 shown):
HC4 LC2 humanized Fab (Fab, V domains shown, also called VH4:VL2) VH: QVQLVESGGGVVQPGRSLRLSCAASGFSLTSYGVTWVRQSPGKGLEWVAVIWGDGSTNYHSGLRSRLTISRDNSKNTLYLEMNSLRTEDTATYYCAKPIYYDFDDDAMDYWGQGTKVTVSS VL: DIQMTQSPSSLSASVGDRVTITCKASQNVGTYVAWFQQRPGKAPKSLIYSASYRCSGVPSKFSGSGSGTDFTLTINSLQPEDFATYYCHQYNNYPLTFGQGTKVEIKR: 0.395 nM
HC5 LC2 humanized Fab (Fab, V domains shown, also called VH5:VL2) VH: QVQLQESGPGLVKPSETLSLTCTVSGFSLTSYGVTWIRQPPGKGLEWIGVIWGDGSTNYHSGLRSRVTISVDTSKNQFSLKLSSVTAADTAVYYCAKPIYYDFDDDAMDYWGQGTSVTVSS VL: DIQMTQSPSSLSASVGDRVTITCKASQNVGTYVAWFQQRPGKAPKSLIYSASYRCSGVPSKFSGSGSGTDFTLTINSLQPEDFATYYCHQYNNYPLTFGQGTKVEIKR: 0.367 nM
HC2 LC4 humanized Fab (Fab, V domains shown, also called VH2:VL4) VH: EVQLVESGPGLVKPSETLSLTCTVSGFSLTSYGVTWIRQPPGKGLEWIGVIWGDGSTNYHSGLRSRVTISVDTSKNQFSLKLSSVTAADTAVYYCAKPIYYDFDDDAMDYWGQGTLVTVSS VL: DIVMTQSPATLSLSPGDRATLSCKASQNVGTYVAWYQQKPGQAPRLLIYSASYRCSGIPARFSGSGSGTDFTLTISSLQSEDFAVYYCHQYNNYPLTFGGGTKVEIKR: 0.693 nM
HC2 LC1 humanized Fab (Fab, V domains shown, also called VH2:VL1) VH: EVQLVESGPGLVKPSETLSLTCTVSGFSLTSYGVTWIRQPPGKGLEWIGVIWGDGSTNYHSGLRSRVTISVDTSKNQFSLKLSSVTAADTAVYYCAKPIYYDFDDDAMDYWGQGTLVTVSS VL: EIVLTQSPSSLSASVGDRVTITCKASQNVGTYVAWFQQKPGKAPKSLIYSASYRCSGVPSKFSGSGSGTDFTLTISSLQPEDFATYYCHQYNNYPLTFGQGTKLEIKR: 0.269 nM

Pending binder:
Can you look up the measured Kd of HC1 LC4 humanized Fab (Fab, V domains shown, also called VH1:VL4) VH: QVQLQESGPGLVKPSETLSLTCTASGFSLTSYGVTWIRQPPGKGLEWIGVIWGDGSTNYHSGLRSRVTISVDTSKSQFSLKLSSVTAADTAVYYCAKPIYYDFDDDAMDYWGQGTLVTVSS VL: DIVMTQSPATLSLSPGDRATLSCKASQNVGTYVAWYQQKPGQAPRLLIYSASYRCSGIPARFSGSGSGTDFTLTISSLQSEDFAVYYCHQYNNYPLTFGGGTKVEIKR for me?
0.496 nM
